Source: patent US5041567A

System: M. suipneumoniae HK(2)
Experiment Summary: MIC against mycoplasma in vitro
Type: cell-based
Experimental Setup: Mesomycoplasma hyopneumoniae, 144 h; M. suipneumoniae HK(2); 6 days, 37° C.; read-out: MIC
Attribute Measured: MIC (µg/mL)

> print(dat)
                            structure.smiles  attribute.measured  sign  endpoint.value
 1  C/C(=C\c1ncc(-c2ccc(CO)cc2)o1)C[C@@H]1OC[C@H](C[C@@H]2O[C@H]2[C@@H](C)[C@H](C)O)[C@@H](O)[C@H]1O                 MIC     =            0.25
 2  C/C(=C\c1nc(C)c(C)o1)C[C@@H]1OC[C@H](C[C@@H]2O[C@H]2[C@@H](C)[C@H](C)O)[C@@H](O)[C@H]1O                 MIC     >              10
 3  COC(=O)CCCCCCCc1cnc(/C=C(\C)C[C@@H]2OC[C@H](C[C@@H]3O[C@H]3[C@@H](C)[C@H](C)O)[C@@H](O)[C@H]2O)o1                 MIC     >              10
 4  C/C(=C\c1ncc(-c2ccc(Br)s2)o1)C[C@@H]1OC[C@H](C[C@@H]2O[C@H]2[C@@H](C)[C@H](C)O)[C@@H](O)[C@H]1O                 MIC     =             0.5
 5  C/C(=C\c1nc(-c2ccccc2)c(-c2ccccc2)o1)C[C@@H]1OC[C@H](C[C@@H]2O[C@H]2[C@@H](C)[C@H](C)O)[C@@H](O)[C@H]1O                 MIC     >              10
 6  C/C(=C\c1ncc(Cc2ccccc2)o1)C[C@@H]1OC[C@H](C[C@@H]2O[C@H]2[C@@H](C)[C@H](C)O)[C@@H](O)[C@H]1O                 MIC     =              10
 7  C/C(=C\c1ncc(-c2ccccc2[N+](=O)[O-])o1)C[C@@H]1OC[C@H](C[C@@H]2O[C@H]2[C@@H](C)[C@H](C)O)[C@@H](O)[C@H]1O                 MIC     =               5
 8  COC(=O)c1ccc(-c2cnc(/C=C(\C)C[C@@H]3OC[C@H](C[C@@H]4O[C@H]4[C@@H](C)[C@H](C)O)[C@@H](O)[C@H]3O)o2)cc1                 MIC     =             0.5
 9  C/C(=C\c1ncc(-c2ccc(C(=O)O)cc2)o1)C[C@@H]1OC[C@H](C[C@@H]2O[C@H]2[C@@H](C)[C@H](C)O)[C@@H](O)[C@H]1O                 MIC     =              10
10  C/C(=C/c1ncc(-c2ccccc2)o1)C[C@@H]1OC[C@H](C[C@@H]2O[C@H]2[C@@H](C)[C@H](C)O)[C@@H](O)[C@H]1O                 MIC     =              10
11  C/C(=C\c1ncc(-c2ccc(C#N)cc2)o1)C[C@@H]1OC[C@H](C[C@@H]2O[C@H]2[C@@H](C)[C@H](C)O)[C@@H](O)[C@H]1O                 MIC     =             0.5

---

Tested on: Past. multocida PA1
Experiment Summary: MIC against veterinary bacteria in vitro
Experimental Setup: Pasteurella multocida, PA1, 18 h
MIC values by entry

Compound	MIC, µg/mL
C/C(=C\c1nc(-c2ccccc2)c(-c2ccccc2)o1)C[C@@H]1OC[C@H](C[C@@H]2O[C@H]2[C@@H](C)[C@H](C)O)[C@@H](O)[C@H]1O	40
C/C(=C\c1ncc(-c2cccc([S+](C)[O-])c2)o1)C[C@@H]1OC[C@H](C[C@@H]2O[C@H]2[C@@H](C)[C@H](C)O)[C@@H](O)[C@H]1O (some centres unmarked)	5
COC(=O)CCCCCCCc1cnc(/C=C(\C)C[C@@H]2OC[C@H](C[C@@H]3O[C@H]3[C@@H](C)[C@H](C)O)[C@@H](O)[C@H]2O)o1	40
C/C(=C\c1ncc(-c2cccc(S(C)(=O)=O)c2)o1)C[C@@H]1OC[C@H](C[C@@H]2O[C@H]2[C@@H](C)[C@H](C)O)[C@@H](O)[C@H]1O	5
C/C(=C\c1ncc(-c2ccc(Br)cc2)o1)C[C@@H]1OC[C@H](C[C@@H]2O[C@H]2[C@@H](C)[C@H](C)O)[C@@H](O)[C@H]1O	10

---

System: Staph. aureus 152 (pen. sens)
Experiment Summary: MIC against veterinary bacteria in vitro
Experimental Setup: Staphylococcus aureus, 18 h
Threshold 2 µg/mL. MIC below it: 1. MIC at it or above: -1.

Molecule	Class Assignment
C/C(=C\c1ncc(-c2ccccc2[N+](=O)[O-])o1)C[C@@H]1OC[C@H](C[C@@H]2O[C@H]2[C@@H](C)[C@H](C)O)[C@@H](O)[C@H]1O [Example 26]	-1
C/C(=C\c1ncc(Cc2ccccc2)o1)C[C@@H]1OC[C@H](C[C@@H]2O[C@H]2[C@@H](C)[C@H](C)O)[C@@H](O)[C@H]1O [Example 27, 5-Benzyl-2-(1-normon-2-yl)oxazole A]	-1
C/C(=C\c1ncc(-c2ccsc2)o1)C[C@@H]1OC[C@H](C[C@@H]2O[C@H]2[C@@H](C)[C@H](C)O)[C@@H](O)[C@H]1O [Example 20]	1
C/C(=C\c1ncc(-c2ccc([N+](=O)[O-])cc2)o1)C[C@@H]1OC[C@H](C[C@@H]2O[C@H]2[C@@H](C)[C@H](C)O)[C@@H](O)[C@H]1O [Example 3]	1
C/C(=C\c1ncc(-c2ccc(C(=O)O)cc2)o1)C[C@@H]1OC[C@H](C[C@@H]2O[C@H]2[C@@H](C)[C@H](C)O)[C@@H](O)[C@H]1O [Example 17]	-1
C/C(=C\c1ncc(C)o1)C[C@@H]1OC[C@H](C[C@@H]2O[C@H]2[C@@H](C)[C@H](C)O)[C@@H](O)[C@H]1O [Example 14, 5-Methyl-2-(1-normon-2-yl) oxazole A]	-1
C/C(=C\c1ncc(-c2ccc([S+](C)[O-])cc2)o1)C[C@@H]1OC[C@H](C[C@@H]2O[C@H]2[C@@H](C)[C@H](C)O)[C@@H](O)[C@H]1O (some centres unmarked) [Example 11]	-1
C/C(=C\c1ncc(CCCCCCCCO)o1)C[C@@H]1OC[C@H](C[C@@H]2O[C@H]2[C@@H](C)[C@H](C)O)[C@@H](O)[C@H]1O [Example 19]	1
C/C(=C\c1ncc(-c2ccccc2)s1)C[C@@H]1OC[C@H](C[C@@H]2O[C@H]2[C@@H](C)[C@H](C)O)[C@@H](O)[C@H]1O [Example 29, 2-(1-Normon-2-yl)-5-phenylthiazole A]	-1
COC(=O)c1ccc(-c2cnc(/C=C(\C)C[C@@H]3OC[C@H](C[C@@H]4O[C@H]4[C@@H](C)[C@H](C)O)[C@@H](O)[C@H]3O)o2)cc1 [Example 16]	1
C/C(=C\c1ncc(-c2cccc(C#N)c2)o1)C[C@@H]1OC[C@H](C[C@@H]2O[C@H]2[C@@H](C)[C@H](C)O)[C@@H](O)[C@H]1O [Example 5]	1

---

Tested on: K. aerogenes A
Experiment Summary: MIC against human bacteria in vitro
Assay type: cell-based
Experimental Setup: Klebsiella aerogenes; K. aerogenes A; 5% chocolated horse blood agar, 18 hours; read-out: MIC
Attribute Measured: MIC

> print(dat)
                           structure.smiles  endpoint.value
1  C/C(=C\c1nc(C)c(-c2ccccc2)o1)C[C@@H]1OC[C@H](C[C@@H]2O[C@H]2[C@@H](C)[C@H](C)O)[C@@H](O)[C@H]1O      > 100 mg/L
2  C/C(=C\c1ncc(CCCCCCCCO)o1)C[C@@H]1OC[C@H](C[C@@H]2O[C@H]2[C@@H](C)[C@H](C)O)[C@@H](O)[C@H]1O      > 128 mg/L
3  C/C(=C\c1cc(-c2ccccc2)no1)C[C@@H]1OC[C@H](C[C@@H]2O[C@H]2[C@@H](C)[C@H](C)O)[C@@H](O)[C@H]1O      > 128 mg/L
4  C/C(=C\c1ncc(-c2ccc(Br)cc2)o1)C[C@@H]1OC[C@H](C[C@@H]2O[C@H]2[C@@H](C)[C@H](C)O)[C@@H](O)[C@H]1O      > 128 mg/L
5  C/C(=C\c1ncc(-c2ccccc2)s1)C[C@@H]1OC[C@H](C[C@@H]2O[C@H]2[C@@H](C)[C@H](C)O)[C@@H](O)[C@H]1O      > 100 mg/L
